Sourced from patent US10722514B2

assayedSystem: recombinant full-length USP7 (Homo sapiens, UniProt Q93009)
Construct: A 25 μl reaction volume containing recombinant full-length USP7 (62 pM)
Sequence (Q93009 whole entry): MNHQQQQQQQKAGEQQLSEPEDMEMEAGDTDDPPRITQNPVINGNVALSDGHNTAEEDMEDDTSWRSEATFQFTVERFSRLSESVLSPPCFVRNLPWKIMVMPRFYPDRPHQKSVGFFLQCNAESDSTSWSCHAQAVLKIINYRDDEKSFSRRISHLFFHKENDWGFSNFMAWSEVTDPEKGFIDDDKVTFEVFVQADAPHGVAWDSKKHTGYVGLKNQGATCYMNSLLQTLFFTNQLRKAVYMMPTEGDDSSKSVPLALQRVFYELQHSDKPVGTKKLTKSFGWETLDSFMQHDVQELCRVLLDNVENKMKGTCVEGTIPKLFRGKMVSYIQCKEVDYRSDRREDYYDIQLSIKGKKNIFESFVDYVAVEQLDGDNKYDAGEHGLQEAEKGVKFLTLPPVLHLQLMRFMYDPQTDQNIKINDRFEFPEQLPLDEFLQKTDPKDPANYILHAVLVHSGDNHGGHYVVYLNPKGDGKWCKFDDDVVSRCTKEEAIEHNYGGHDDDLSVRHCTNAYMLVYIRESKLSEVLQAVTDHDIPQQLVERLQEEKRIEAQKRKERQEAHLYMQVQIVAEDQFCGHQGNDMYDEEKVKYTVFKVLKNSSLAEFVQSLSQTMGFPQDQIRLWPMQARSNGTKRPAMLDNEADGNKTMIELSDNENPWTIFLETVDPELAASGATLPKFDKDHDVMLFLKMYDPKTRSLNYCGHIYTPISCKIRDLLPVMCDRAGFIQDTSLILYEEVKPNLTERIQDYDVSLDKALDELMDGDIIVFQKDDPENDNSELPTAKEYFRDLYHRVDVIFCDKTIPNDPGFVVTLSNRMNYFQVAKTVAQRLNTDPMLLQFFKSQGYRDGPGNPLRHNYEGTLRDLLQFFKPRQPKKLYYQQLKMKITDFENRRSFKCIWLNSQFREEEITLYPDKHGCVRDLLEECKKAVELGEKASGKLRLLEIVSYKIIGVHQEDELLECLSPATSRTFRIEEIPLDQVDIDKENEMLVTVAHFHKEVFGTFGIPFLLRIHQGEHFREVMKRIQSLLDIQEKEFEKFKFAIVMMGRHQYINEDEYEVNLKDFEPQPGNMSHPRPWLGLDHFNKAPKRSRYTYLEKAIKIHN
testMethodNotes: USP7-mediated ubiquitin-rhodamine cleavage assay
Format: biochemical
studyConditions: recombinant full-length USP7 62 pM; ubiquitin-rhodamine 100 nM; 30-minute incubation with compound, 1 hour reaction at room temperature; read-out: Potency: USP7 IC50
Let's look at some molecules and their measured IC50.

Example cases with answers are listed next.
molecule	experimentalReadout	assayValue
Cc1cc(C(F)(F)F)cc(-c2ccnc3cc(CN4C(=O)C5CC5C4=O)sc23)c1O[C@@H]1CNC[C@@H]1F (stereo partly drawn)	IC50	< 1 µM
Cc1cc(Cl)cc(-c2ncnc3cc(CN4C(=O)CN(C)C4=O)sc23)c1O[C@@H]1CNC[C@@H]1F	IC50	< 1 µM

Next up:
QUERY: May I ask what IC50 has been recorded for "Cc1cc(Cl)cc(-c2ccnc3cc(CO)sc23)c1OC1CCNCC1" ?
RESULT: 1 to 10 µM

----------
assayedSystem: recombinant full-length USP7 (Homo sapiens, UniProt Q93009)
Construct: A 25 μl reaction volume containing recombinant full-length USP7 (62 pM)
testMethodNotes: USP7-mediated ubiquitin-rhodamine cleavage assay
Type: biochemical
studyConditions: recombinant full-length USP7 62 pM; ubiquitin-rhodamine 100 nM; 30-minute incubation with compound, 1 hour reaction at room temperature; read-out: Potency: USP7 IC50
experimentalReadout: IC50

Example cases with answers are listed next.
compound	assayValue
Cc1cc(Cl)cc(-c2ccnc3ccsc23)c1OC1CCC(=O)NC1 (stereo not shown) [Example 198]	> 30000 nM
Cc1cc(Cl)cc(-c2ncnc3cc(Cn4c(=O)ccn(CC(F)(F)F)c4=O)sc23)c1O[C@@H]1CCNC[C@@H]1F [Example 170]	< 1000 nM
Cc1cc(Cl)cc(-c2ccnc3cc(Cn4c(=O)ccn(CC(F)(F)F)c4=O)sc23)c1OC1CCNCC1C(F)(F)F (stereo not shown) [Example 272]	< 1000 nM
Cc1cc(Cl)cc(-c2ccnc3cc(CO)sc23)c1O[C@@H]1CCCC[C@@H]1N [Example 196]	> 30000 nM
Cc1cc(C(F)(F)F)cc(-c2ccnc3cc(Cn4c(=O)[nH]cc(F)c4=O)sc23)c1O[C@@H]1CNC[C@@H]1F [Example 136]	< 1000 nM
Cc1cc(C#N)cc(-c2ncnc3cc(CN4C(=O)c5ccccc5C4=O)sc23)c1O[C@@H]1CNC[C@@H]1F [Example 110]	< 1000 nM

Next up:
QUERY: May I ask what IC50 has been recorded for Cc1cc(Cl)cc(-c2ccnc3cc(CN4C(=O)SC(C)(C)C4=O)sc23)c1O[C@H]1CCCNC1 [Example 295] ?
RESULT: < 1000 nM

----------
Let's look at some molecules and their measured IC50.
assayedSystem: recombinant full-length USP7 (Homo sapiens, UniProt Q93009)
Construct: A 25 μl reaction volume containing recombinant full-length USP7 (62 pM)
testMethodNotes: USP7-mediated ubiquitin-rhodamine cleavage assay
Format: biochemical
studyConditions: recombinant full-length USP7 62 pM; ubiquitin-rhodamine 100 nM; 30-minute incubation with compound, 1 hour reaction at room temperature; read-out: Potency: USP7 IC50
Counter-ions that a name gives are not always drawn.

molecule	assayedSystem	experimentalReadout	assayValue
CCC(O)c1cc2nccc(-c3cc(Cl)cc(C)c3OCC3CN(C)C3)c2s1 (stereo not shown)	recombinant full-length USP7 (Homo sapiens, UniProt Q93009)	IC50	10000 to 30000 nM
Cc1cc(Cl)cc(-c2ccnc3cc(CN4C(=O)C5CCCC5C4=O)sc23)c1O[C@@H]1CNC[C@@H]1F (stereo partly shown)	recombinant full-length USP7 (Homo sapiens, UniProt Q93009)	IC50	< 1000 nM
Cc1cc(C(F)(F)F)cc(-c2ccnc3cc(CN4C(=O)CCC4=O)sc23)c1O[C@@H]1CNC[C@@H]1F	recombinant full-length USP7 (Homo sapiens, UniProt Q93009)	IC50	< 1000 nM
CCN1C[C@H](F)[C@H](Oc2c(C)cc(Cl)cc2-c2ccnc3cc(CN4C(=O)C5CC5C4=O)sc23)C1 (stereo partly shown)	recombinant full-length USP7 (Homo sapiens, UniProt Q93009)	IC50	< 1000 nM
Cc1cc(Cl)cc(-c2ccnc3cc(Cn4c(=O)cc[nH]c4=O)sc23)c1O[C@@H]1CNC[C@@H]1F	recombinant full-length USP7 (Homo sapiens, UniProt Q93009)	IC50	< 1000 nM

QUERY: Look up IC50 with recombinant full-length USP7 (Homo sapiens, UniProt Q93009) for this molecule: Cc1cc(Cl)cc(-c2ccnc3ccsc23)c1OC1CCCCNC1 (stereo not shown)
RESULT: 10000 to 30000 nM

QUERY: Look up IC50 with recombinant full-length USP7 (Homo sapiens, UniProt Q93009) for this molecule: "Cc1cc(Cl)cc(-c2ccnc3ccsc23)c1OC1CCNCC1"
RESULT: 10000 to 30000 nM

QUERY: Look up IC50 with recombinant full-length USP7 (Homo sapiens, UniProt Q93009) for this molecule: CCN1C[C@H]2C[C@@H]1[C@H](Oc1c(C)cc(Cl)cc1-c1ncnc3cc(CN4C(=O)C5C(C4=O)C5(C)C)sc13)C2 (stereo partly shown) [Example 356, dihydrochloride]
RESULT: < 1000 nM

QUERY: Look up IC50 with recombinant full-length USP7 (Homo sapiens, UniProt Q93009) for this molecule: "N#Cc1cc(Cl)cc(-c2ccnc3cc(CN4C(=O)CCC4=O)sc23)c1O[C@@H]1CNC[C@@H]1F"
RESULT: < 1000 nM

QUERY: Look up IC50 with recombinant full-length USP7 (Homo sapiens, UniProt Q93009) for this molecule: "Cc1cc(Cl)cc(-c2ccnc3cc(CN4C(=O)CCC4=O)sc23)c1OCC1(F)CNC1"
RESULT: < 1000 nM

QUERY: Look up IC50 with recombinant full-length USP7 (Homo sapiens, UniProt Q93009) for this molecule: "Cc1cc(Cl)cc(-c2ncnc3ccsc23)c1O[C@H]1CCCNC1"
RESULT: 10000 to 30000 nM
